All figures here come from patent US9738653B2.

Known EC50 of a selection of compounds
System: genotype 1b (Con-1) HCV replicon in Huh-7 cells
Experiment: HCV replicon luciferase assay
Assay type: cell-based
Details: Hepatitis C virus, Huh-7, 72 h, 1b replicon, Renilla luciferase, 3 days incubation
Method: The cell lines used to evaluate compounds consist of a human hepatocyte derived cell line (Huh-7) that constitutively expresses a genotype 1b (Con-1) HCV replicon or a genotype 1b (Con-1) HCV replicon with an asparagine replacing the cysteine at amino acid 316, or a genotype 2a (JFH-1) replicon, containing a Renilla luciferase reporter gene. These cells were maintained in Dulbecco's modified Eagle medium (DMEM) containing 10% FBS, 100 U/mL penicillin/streptomycin and 1.0 mg/mL G418. […]
The figure you give is taken to be in nM; do not add the unit.

Recorded results for 3 compounds are shown here.
Tell me EC50 of `CNC(=O)c1c(-c2ccc(F)cc2)oc2cc(CC(=O)OC)c(-c3ccc(F)c(C(=O)NC45CC(C4)C5)c3)cc12` when tested on genotype 1b (Con-1) HCV replicon in Huh-7 cells.
20

Tell me EC50 of `CNC(=O)c1c(-c2ccc(F)cc2)oc2nc(CCC(F)(F)F)c(-c3cncc(C(=O)NC45CC(C4)C5)c3)cc12` when tested on genotype 1b (Con-1) HCV replicon in Huh-7 cells.
3.3

Tell me EC50 of `CCNc1cc2oc(-c3ccc(F)cc3)c(C(=O)NC)c2cc1-c1cc(C(=O)NC23CC(C2)C3)c(F)cc1F` when tested on genotype 1b (Con-1) HCV replicon in Huh-7 cells.
10

Next:
Tell me EC50 of `CNC(=O)c1c(-c2ccc(F)cc2)oc2cc(CCCO)c(-c3cccc(C(=O)NC45CC(C4)C5)c3)cc12` when tested on genotype 1b (Con-1) HCV replicon in Huh-7 cells.
3.86

Tell me EC50 of `CCCc1nc2oc(-c3ccc(F)cc3)c(C(=O)NC)c2cc1-c1cccc(C(=O)NC23CC(C2)C3)c1` when tested on genotype 1b (Con-1) HCV replicon in Huh-7 cells.
5.26

Tell me EC50 of `CCCc1nc2oc(-c3ccc(F)cc3)c(C(=O)NC)c2cc1-c1ccc(F)c(C(=O)NC23CC(C2)C3)c1` when tested on genotype 1b (Con-1) HCV replicon in Huh-7 cells.
5.16

Tell me EC50 of `CNC(=O)c1c(-c2ccc(F)cc2)oc2cc(CCC(F)F)c(-c3cccc(C(=O)NC45CC(C4)C5)c3)cc12` when tested on genotype 1b (Con-1) HCV replicon in Huh-7 cells.
3.89

Tell me EC50 of `CNC(=O)c1c(-c2ccc(F)cc2)oc2nc(CCC(F)(F)F)c(-c3csc(C(=O)NC45CC(C4)C5)c3)cc12` when tested on genotype 1b (Con-1) HCV replicon in Huh-7 cells.
20

----------
System: genotype 1b (Con-1) HCV replicon in Huh-7 cells
Experiment: HCV replicon luciferase assay
Assay type: cell-based
Settings: Hepatitis C virus, Huh-7, 72 h, 1b replicon, Renilla luciferase, 3 days incubation
assay endpoint: pEC50
Formally, pEC50 is defined as -log10 of the concentration c, with c in mol/L.

Look up pEC50 of `CNC(=O)c1c(-c2ccc(F)cc2)oc2cc(CC(=O)OC)c(-c3cccc(C(=O)NC45CC(C4)C5)c3)cc12` and report it.
8.09

Look up pEC50 of `CNC(=O)c1c(-c2ccc(F)cc2)oc2nc(CCC(F)(F)F)c(-c3cccc(C(=O)NC45CC(C4)C5)c3)cc12` and report it.
8.39

Look up pEC50 of `CNC(=O)c1c(-c2ccc(F)cc2)oc2cc(CCC(F)(F)F)c(-c3cc(C(=O)NC45CC(C4)C5)c(F)cc3C)cc12` and report it.
7.70

Look up pEC50 of `CNC(=O)c1c(-c2ccc(F)cc2)oc2cc(CC(=O)O)c(-c3ccc(F)c(C(=O)NC45CC(C4)C5)c3)cc12` and report it.
5.09

Look up pEC50 of `CNC(=O)c1c(-c2ccc(F)cc2)oc2cc(NCC(F)(F)F)c(-c3ccc(OC)c(C(=O)NC45CC(C4)C5)c3)cc12` and report it.
8.29

Next:
Look up pEC50 of `CNC(=O)Cc1cc2oc(-c3ccc(F)cc3)c(C(=O)NC)c2cc1-c1cccc(C(=O)NC23CC(C2)C3)c1` and report it.
7.30
